Where these numbers come from: PubChem BioAssay (EPA / NIEHS)

assayRemarks: CCTE_Shafer_MEA_acute_cross_correlation_area: CCTE's Neural Acute Assay for Area of Cross Correlation, Shafer Lab (AID 2284024);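 further: area under pooled inter-electrode spike cross-correlation near zero lag as percent change from own baseline; curves fitted for loss of cross-correlation area so actives lower synchrony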;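 on outcome: rat primary cortical neuron networks on 48-well MEA at DIV 13 or 15 with 40 min exposure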
The source made the active and inactive calls. How the source made its calls: active means hit-call score of the fitted dose curve at least 0.9, where 1 is the maximum; inactive means score below 0.9.
Lab note: assign the record to one of active, inactive

What outcome does the record of this test show for CC(COc1ccc(Oc2ccccc2)cc1)Oc1ccccn1 (stereo unspecified) ?
inactive

Would you mind telling me which call this test gave `CN1COCN(Cc2cnc(Cl)s2)C1=N[N+](=O)[O-]` ?
inactive

# fetch the recorded call for `O=[N+]([O-])c1cc(C(F)(F)F)c(Cl)c([N+](=O)[O-])c1Nc1ncc(C(F)(F)F)cc1Cl` here
active

In this assay, the call recorded for CCc1cnc(C2=NC(C)(C(C)C)C(=O)N2)c(C(=O)O)c1 (stereo unspecified) was what?
inactive

Could you please tell me the result logged for `CCOP(=S)(OCC)SCCSCC` in this assay?
inactive

For `N#CSCSC#N` , what call appears in the results of this test?
inactive

* * *

assayRemarks: BSK_KF3CT_SRB: Viability Assessment in the BioMAP Diversity Plus: KF3CT Assay (AID 2283069);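 further: total protein by sulforhodamine B staining as a cytotoxicity measure; read 24 h after compound addition; fitted for both signal gain and loss against DMSO baseline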
settings: primary human keratinocytes with fibroblasts
Calls of active or inactive are those of the source. How the source made its calls: active means hit-call score of the fitted dose curve at least 0.9, where 1 is the maximum; inactive means score below 0.9.
Hello, when you answer, please use one of the following outcomes: 1 (active), 0 (inactive)

Just curious, what result did COP(=O)(OC)C(O)C(Cl)(Cl)Cl (stereo unspecified) get here?
0

Short answer needed: outcome of this test for CCOP(=S)(OCC)OC(Cl)C(Cl)(Cl)Cl (stereo unspecified) ?
1

Tell me the assay call for `CCOP(=O)(OCC)Oc1cc(C)nc(C(C)C)n1` please.
0

Tell me the recorded outcome of this test for `COc1cccc(C(=O)NN(C(=O)c2cc(C)cc(C)c2)C(C)(C)C)c1C` .
0

# fetch the recorded call for `CCC(CC)Nc1c([N+](=O)[O-])cc(C)c(C)c1[N+](=O)[O-]` here
0

Test call, this compound: `N#CSCSC#N`
1

* * *

assayRemarks: Tanguay_ZF_120hpf_PFIN_legacy: (Legacy) Oregon State University Tanguay Lab 120 Hour Post-fertilization zebrafish Assay for Pectoral Fin Malformation (AID 2283648);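 further: each larva judged yes or no for fin defect by brightfield with dead larvae skipped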
Inconclusive results are not listed. Calls of active or inactive are those of the source. How the source made its calls: active means hit-call score of the fitted dose curve at least 0.9, where 1 is the maximum; inconclusive means response in the unintended direction; inactive means score below 0.9.
The categories you may choose from are active, inactive

So what was the verdict on FC(F)C(F)(F)OCC(Cn1cncn1)c1ccc(Cl)cc1Cl (stereo unspecified) in this test?
active

What did this assay record as the result for `Nc1c(Cl)cc([N+](=O)[O-])cc1Cl` ?
active

Lab log entry: `COc1cccc(C(=O)NN(C(=O)c2cc(C)cc(C)c2)C(C)(C)C)c1C` — outcome as called in the assay?
inactive

Please indicate how the test categorized `O=[N+]([O-])c1cc(C(F)(F)F)c(Cl)c([N+](=O)[O-])c1Nc1ncc(C(F)(F)F)cc1Cl` .
inactive

Please indicate how the test categorized `CCCCSP(=O)(SCCCC)SCCCC` .
inactive

Recorded call for `CCC(=O)Nc1ccc(Cl)c(Cl)c1` ?
inactive

I would be grateful if you could indicate the recorded call for `O=C(O)c1cc(Oc2ccc(C(F)(F)F)cc2Cl)ccc1[N+](=O)[O-]` .
inactive

Called result for `CSc1nnc(C(C)(C)C)c(=O)n1N`
inactive

Answer briefly: the call reported for `CSC1=N[C@@](C)(c2ccccc2)C(=O)N1Nc1ccccc1` in this assay.
inactive

Check the results log: what was the call for CCOC(=O)CC(SP(=O)(OC)OC)C(=O)OCC (stereo unspecified) ?
inactive

Please share the test call associated with `COc1cc(OC)nc(Sc2cccc(Cl)c2C(=O)O)n1` .
inactive
